Value source: the antibiotic and cytotoxicity screens of Wong et al. (2023)

system: HSkMC; experiment: cytotoxicity call (relative viability < 0.9); conditions: 10 µM
Screen size: about 39,000 compounds; about 1,500 (3.8%) were called active. The sample as a whole holds a higher share of actives than the screen did.
Please answer using one outcome listed in true (1) (active), false (0) (inactive)

Check out these entries, answers already filled in.
chemical_structure=COc1ccccc1CN(C)C[C@@H]1OCc2ccccc2-c2c(n(C)c3ccccc23)C(=O)N([C@@H](C)CO)C[C@@H]1C class_name="false (0)"
chemical_structure=COc1ccccc1CN(C)C[C@@H]1OCc2ccccc2-c2c(n(C)c3ccccc23)C(=O)N([C@H](C)CO)C[C@H]1C class_name="false (0)"
chemical_structure=COc1ccccc1CN(C)C[C@H]1OCc2ccccc2-c2c(n(C)c3ccccc23)C(=O)N([C@H](C)CO)C[C@@H]1C class_name="false (0)"

Please turn your attention to the following entry.
Data request: Called result for C[C@@H]1CN([C@@H](C)CO)C(=O)c2c(c3ccccc3n2C)-c2ccccc2CO[C@H]1CN(C)Cc1ccccc1C(F)(F)F
Data returned: true (1)

----------
system: HSkMC; test: cytotoxicity call (relative viability < 0.9); conditions: 10 µM
In all, about 39,000 compounds went through this assay and about 1,500 (3.8%) were called active. The entries come from a sample that favours actives as a whole.
Please answer using one outcome listed in t for active, f for inactive

Check out these entries, answers already filled in.
chemical_structure=Cc1noc(C)c1S(=O)(=O)N(C)C[C@H]1Oc2ccc(NC(=O)Cn3cnnn3)cc2CC(=O)N([C@@H](C)CO)C[C@@H]1C class_name=f
chemical_structure=CC1(C)CCC(CN2CCN(c3ccc(C(=O)NS(=O)(=O)c4ccc(NCC5CCOCC5)c([N+](=O)[O-])c4)c(Oc4cnc5[nH]ccc5c4)c3)CC2)=C(c2ccc(Cl)cc2)C1 class_name=f
chemical_structure=CN(C)CC[C@H](CSc1ccccc1)Nc1ccc(S(=O)(=O)NC(=O)c2ccc(N3CCN(Cc4ccccc4-c4ccc(Cl)cc4)CC3)cc2)cc1[N+](=O)[O-] class_name=f
chemical_structure=O=C(C[C@@H]1C[C@H]2c3cc(NC(=O)Nc4ccc(C(F)(F)F)cc4)ccc3O[C@H]2[C@H](CO)O1)NCc1cc(F)ccc1F class_name=f
chemical_structure=CC1(C)CCC(c2ccc(Cl)cc2)=C(CN2CCN(c3ccc(C(=O)NS(=O)(=O)c4ccc(N[C@@H](CCN5CCOCC5)CSc5ccccc5)c(S(=O)(=O)C(F)(F)F)c4)cc3)CC2)C1 class_name=t

Please turn your attention to the following entry.
Data request: Called result for C[C@@H]1CN([C@@H](C)CO)C(=O)c2cc(NS(C)(=O)=O)ccc2O[C@H]1CN(C)Cc1ccc(C(=O)Nc2ccccc2N)cc1
Data returned: f

----------
system: HSkMC (human skeletal muscle cells); assay: cytotoxicity call (relative viability < 0.9); details: 10 µM
Out of some 39,000 compounds screened, about 1,500 (3.8%) were called active. The sample as a whole holds a higher share of actives than the screen did.
Please answer using one outcome listed in T (active), F (inactive)

Check out these entries, answers already filled in.
chemical_structure=COc1ccccc1-c1cccc(-c2nc(C(=O)NCc3ccncc3)cc3c2[C@@H](CCO)N([S@](=O)C(C)(C)C)C3)c1 class_name=F
chemical_structure=CCNC(=O)c1cc2c(c(-c3cccc(-c4cccc(F)c4)c3)n1)[C@H](CCO)N([S@@](=O)C(C)(C)C)C2 class_name=F
chemical_structure=COc1cc(C(=O)NCc2ccc(OCCN(C)C)cc2)cc(OC)c1OC.Cl class_name=F
chemical_structure=C[C@H](CO)N1C[C@H](C)[C@H](CN(C)Cc2ccc(C(F)(F)F)cc2)Oc2ccc(NC(=O)Cc3ccccc3)cc2C1=O class_name=F
chemical_structure=COc1ccc(CCN(C)CCCOc2ccc(S(=O)(=O)c3c(C(C)C)cn4ccccc34)cc2)cc1OC class_name=T
chemical_structure=Cn1cnc(S(=O)(=O)N2C[C@@H](O)COC[C@@H]3O[C@@H](CC(=O)NC4Cc5ccccc5C4)CC[C@H]32)c1 class_name=F
chemical_structure=COc1ccccc1-c1cccc(-c2nc(C(=O)NCc3ccncc3)cc3c2[C@H](CCO)N([S@@](=O)C(C)(C)C)C3)c1 class_name=T

Please turn your attention to the following entry.
Data request: Called result for COc1ccc(C(=O)NCc2ccc(OCCN(C)C)cc2)cc1OC
Data returned: F
